Molecular target: T1, human PACAP38 (human, not fully specified; C-terminal lysine is amidated; N-terminal or C-terminal biotin in the HTRF and PC-12 cell binding assays)
T1 construct: synthetic peptide, bought; also called huPACAP (1-38)
T1 peptide: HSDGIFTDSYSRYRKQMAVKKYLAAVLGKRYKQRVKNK
Test: inhibition of 100 nM biotin-PACAP38 binding to PC-12 cells, TRF
experimental endpoint: IC50 (nM)
API: value field is a number in nM; no unit string.

For the binder anti-PACAP antibody Ab6 (antibody, human IgG1, kappa, N297A, V domains shown, full-length rabbit/human chimeric antibody) VH: LEQSGGGAEGGLVKPGGSLELCCKASGFSLSSTYWMCWVRQAPGKGLEWIGCIYTGSGSTDYASWVNGQFTLSRDIDQSTGCLQLNSLTVADTAMYYCTKNFDLWGPGTLVTVSS VL: AQVLTQTPSSVSAAVGGTVTINCQSSPSVYSNNYLSWFQQKPGQPPKGLIADASTLASGVPSRFKGSGSGTQFTLTISGVQCDDAAAYYCLGYYDCGSTDCHAFGGGTEVVVKR , what IC50 is on record?
7.8

Continue with anti-PACAP antibody Ab3 (antibody, human IgG1, kappa, N297A, V domains shown, full-length rabbit/human chimeric antibody) VH: QEQLVESGGGLVQPEGSLTLTCTASGFSFSSSDYMCWVRQAPGKGLEWIGCIDAGSSGDTYFASWAKGRFTISKTSSTTVTLQMTSLTAADTATYFCARHLYGSITFAFGLWGQGTLVTVSS VL: AAVLTQTPSPVSAAVGGTVTINCQASQSIGSDLAWYQQKPGQPPKLLIYDASTLASGVPSRFSGSGSGTQFTLTISGVQCDDAATYYCQGTYYSSGWYTAFGGGTEVVVKR
17.2

Entry to check: anti-PACAP antibody Ab14 (antibody, human IgG1, kappa, N297A, V domains shown, full-length rabbit/human chimeric antibody) VH: QSVEASGGRLVTPGTPLTLTCTVSGFSLSSAAMNWVRQAPGKGLEWIGFIEYSKNIVYASWAKGRFTISKVSSTTVDLKMTSPTTEDTATYFCARGGGEFFIWGQGTLVTVSS VL: AQVLTQTPSSVSAAVGGTVTINCQSSQSVYSNNRLSYYQQKPGQPPKLLIYEASSLAYGVPSRFKGSGSGTQFTLTISDLECDDAATYYCAGAYSNSIYSFGGGTEVVVKR
17.9
